Measured values drawn from paper PMC8524858 for this set.

- SYSTEM TESTED: human integrin αvβ1 (Homo sapiens, UniProt P05556+P06756)
- Sequence (P06756 31-992 limits assumed): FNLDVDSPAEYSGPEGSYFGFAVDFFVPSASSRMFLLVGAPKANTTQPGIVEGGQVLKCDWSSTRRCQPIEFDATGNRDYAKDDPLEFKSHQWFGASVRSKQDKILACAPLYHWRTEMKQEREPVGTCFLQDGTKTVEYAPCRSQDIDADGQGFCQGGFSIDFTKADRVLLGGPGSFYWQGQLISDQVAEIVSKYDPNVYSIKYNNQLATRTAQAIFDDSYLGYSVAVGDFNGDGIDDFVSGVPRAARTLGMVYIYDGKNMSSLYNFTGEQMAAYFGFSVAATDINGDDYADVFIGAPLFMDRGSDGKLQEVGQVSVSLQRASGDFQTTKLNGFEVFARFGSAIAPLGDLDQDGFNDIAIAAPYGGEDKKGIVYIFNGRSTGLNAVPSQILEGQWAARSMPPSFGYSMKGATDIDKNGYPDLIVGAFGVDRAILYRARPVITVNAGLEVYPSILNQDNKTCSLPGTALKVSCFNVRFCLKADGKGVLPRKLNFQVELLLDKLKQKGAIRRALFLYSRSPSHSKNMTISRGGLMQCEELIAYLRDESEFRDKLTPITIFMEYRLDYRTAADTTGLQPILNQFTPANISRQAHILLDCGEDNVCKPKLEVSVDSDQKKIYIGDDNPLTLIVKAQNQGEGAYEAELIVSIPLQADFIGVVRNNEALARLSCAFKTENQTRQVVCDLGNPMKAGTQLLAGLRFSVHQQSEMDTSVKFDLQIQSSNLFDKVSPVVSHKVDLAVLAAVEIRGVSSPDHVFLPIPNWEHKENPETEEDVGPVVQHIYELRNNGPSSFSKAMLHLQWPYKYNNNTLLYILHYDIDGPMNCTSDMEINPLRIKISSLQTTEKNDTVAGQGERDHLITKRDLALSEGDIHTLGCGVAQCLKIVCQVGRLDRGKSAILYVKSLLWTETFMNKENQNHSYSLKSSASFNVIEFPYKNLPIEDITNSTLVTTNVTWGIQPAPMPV
- Sequence (P05556 21-728 limits assumed): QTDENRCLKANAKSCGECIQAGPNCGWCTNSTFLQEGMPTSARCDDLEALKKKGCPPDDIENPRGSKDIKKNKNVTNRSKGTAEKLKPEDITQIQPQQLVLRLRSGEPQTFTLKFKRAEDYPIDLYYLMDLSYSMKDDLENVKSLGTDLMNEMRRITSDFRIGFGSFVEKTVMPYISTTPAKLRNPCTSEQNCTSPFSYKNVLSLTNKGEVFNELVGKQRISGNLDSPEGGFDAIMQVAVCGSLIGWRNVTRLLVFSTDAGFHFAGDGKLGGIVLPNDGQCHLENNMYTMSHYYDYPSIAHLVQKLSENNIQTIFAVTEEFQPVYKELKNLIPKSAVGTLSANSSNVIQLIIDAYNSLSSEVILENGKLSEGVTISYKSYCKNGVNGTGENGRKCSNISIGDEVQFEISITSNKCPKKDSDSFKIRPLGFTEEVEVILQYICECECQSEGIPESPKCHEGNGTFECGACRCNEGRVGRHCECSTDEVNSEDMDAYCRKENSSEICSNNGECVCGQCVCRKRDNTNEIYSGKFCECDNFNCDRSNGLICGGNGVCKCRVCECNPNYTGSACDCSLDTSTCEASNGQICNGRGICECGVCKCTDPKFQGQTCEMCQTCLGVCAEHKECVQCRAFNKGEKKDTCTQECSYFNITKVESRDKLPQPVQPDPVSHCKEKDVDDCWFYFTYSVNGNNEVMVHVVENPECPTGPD
- TEST PROTOCOL: Integrin ligand-binding assay, αvβ1 (fibronectin ligand)
VALUE TYPE: pIC50
API: returns pIC50 as number; meaning -log10 of concentration in mol/L.

- COMPOUND: "CC(C)(C)c1cc(Br)cc([C@H](CC(=O)O)NC(=O)CNC(=O)c2cc(O)cc(NC3=NCC(O)CN3)c2)c1 (some centres unmarked) [CWHM-12, reference compound]"
  SYSTEM TESTED: "human integrin αvβ1 (Homo sapiens, UniProt P05556+P06756)"
  pIC50: 8.89

// next item, pIC50 requested
GET /values?readout=pIC50&system=human integrin αvβ1 (Homo sapiens, UniProt P05556+P06756)&item= COCCN(CCCCc1ccc2c(n1)NCCC2)CC[C@H](Nc1ncnc2ccccc12)C(=O)O [PLN-74809]
8.47

----------
- SYSTEM TESTED: human integrin αvβ6 (Homo sapiens, UniProt P06756+P18564)
- Sequence (P06756 31-992 limits assumed): as the sequence (P06756 31-992 limits assumed) above
- Sequence (P18564 22-707 limits assumed): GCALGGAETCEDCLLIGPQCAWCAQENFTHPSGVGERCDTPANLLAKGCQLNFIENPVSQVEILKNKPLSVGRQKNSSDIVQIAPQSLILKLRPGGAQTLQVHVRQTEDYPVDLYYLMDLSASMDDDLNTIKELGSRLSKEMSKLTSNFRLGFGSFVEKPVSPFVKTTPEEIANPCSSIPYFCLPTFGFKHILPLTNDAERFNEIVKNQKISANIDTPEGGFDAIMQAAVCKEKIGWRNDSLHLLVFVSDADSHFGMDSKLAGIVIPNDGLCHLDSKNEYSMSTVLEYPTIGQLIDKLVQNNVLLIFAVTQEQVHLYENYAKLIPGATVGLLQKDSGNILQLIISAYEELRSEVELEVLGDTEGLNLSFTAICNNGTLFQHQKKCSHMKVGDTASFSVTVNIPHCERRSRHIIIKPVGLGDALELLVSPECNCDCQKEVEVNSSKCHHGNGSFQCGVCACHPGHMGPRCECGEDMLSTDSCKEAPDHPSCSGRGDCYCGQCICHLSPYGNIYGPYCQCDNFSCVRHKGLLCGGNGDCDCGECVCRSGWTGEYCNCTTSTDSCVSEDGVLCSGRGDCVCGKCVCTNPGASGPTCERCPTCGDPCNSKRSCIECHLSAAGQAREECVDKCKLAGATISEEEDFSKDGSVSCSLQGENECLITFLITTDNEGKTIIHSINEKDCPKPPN
- TEST PROTOCOL: Integrin ligand-binding assay, αvβ6 (LAP ligand)
VALUE TYPE: IC50

- MOLECULE: "COCCN(CCCCc1ccc2c(n1)NCCC2)CC[C@H](Nc1ncnc2ccccc12)C(=O)O"
  IC50: "5.7 nM"

GET /values?readout=IC50&system=human integrin αvβ6 (Homo sapiens, UniProt P06756+P18564)&item= CC(C)(C)c1cc(Br)cc([C@H](CC(=O)O)NC(=O)CNC(=O)c2cc(O)cc(NC3=NCC(O)CN3)c2)c1 (some centres unmarked) [CWHM-12, reference compound]
6.1 nM

----------
- SYSTEM TESTED: human integrin αvβ5 (Homo sapiens, UniProt P06756+P18084)
- Sequence (P06756 31-992 limits assumed): as the sequence (P06756 31-992 limits assumed) above
- Sequence (P18084 24-719 limits assumed): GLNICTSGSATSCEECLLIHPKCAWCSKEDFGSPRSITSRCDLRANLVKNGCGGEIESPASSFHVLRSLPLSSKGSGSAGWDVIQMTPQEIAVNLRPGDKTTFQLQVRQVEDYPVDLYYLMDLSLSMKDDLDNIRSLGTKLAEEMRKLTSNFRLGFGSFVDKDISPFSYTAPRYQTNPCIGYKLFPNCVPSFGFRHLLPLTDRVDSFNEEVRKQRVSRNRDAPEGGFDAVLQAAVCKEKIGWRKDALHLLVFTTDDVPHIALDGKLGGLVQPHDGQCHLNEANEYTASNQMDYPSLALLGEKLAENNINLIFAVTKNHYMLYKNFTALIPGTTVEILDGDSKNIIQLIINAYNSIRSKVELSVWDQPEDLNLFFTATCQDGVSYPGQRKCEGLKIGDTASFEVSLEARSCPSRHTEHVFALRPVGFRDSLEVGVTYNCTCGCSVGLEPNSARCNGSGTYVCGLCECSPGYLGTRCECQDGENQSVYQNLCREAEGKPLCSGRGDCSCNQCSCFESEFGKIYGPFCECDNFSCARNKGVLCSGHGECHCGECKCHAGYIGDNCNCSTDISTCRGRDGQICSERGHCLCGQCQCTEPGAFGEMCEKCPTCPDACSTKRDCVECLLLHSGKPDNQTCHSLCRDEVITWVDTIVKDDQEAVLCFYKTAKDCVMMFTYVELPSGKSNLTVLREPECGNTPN
- TEST PROTOCOL: Integrin ligand-binding assay, αvβ5 (vitronectin ligand)
Recorded IC50 values for a group of compounds are listed next.
Numeric answer only, unit µM assumed.

- COMPOUND: "CC(C)(C)c1cc(Br)cc([C@H](CC(=O)O)NC(=O)CNC(=O)c2cc(O)cc(NC3=NCC(O)CN3)c2)c1 (some centres unmarked) [CWHM-12, reference compound]"
  IC50 [µM]: 0.0053

// next item, IC50 requested
Would you mind telling me what IC50 value was observed for COCCN(CCCCc1ccc2c(n1)NCCC2)CC[C@H](Nc1ncnc2ccccc12)C(=O)O ?
6.99
